target: PSMA-expressing C4-2 cells (Homo sapiens, UniProt Q04609); construct: PSMA-expressing C4-2 cells (ATCC, Cat. No. CRL-3314) were cultured in RPMI-1640; host or cells: C4-2 cells; test: FACS binding assay (competition with 50 nM PSM-0183); conditions: FACS binding, PSMA-expressing C4-2 cells; pIC50 category; read-out: pIC50 [C4-2] CAT (converted)
Sequence (Q04609 whole entry): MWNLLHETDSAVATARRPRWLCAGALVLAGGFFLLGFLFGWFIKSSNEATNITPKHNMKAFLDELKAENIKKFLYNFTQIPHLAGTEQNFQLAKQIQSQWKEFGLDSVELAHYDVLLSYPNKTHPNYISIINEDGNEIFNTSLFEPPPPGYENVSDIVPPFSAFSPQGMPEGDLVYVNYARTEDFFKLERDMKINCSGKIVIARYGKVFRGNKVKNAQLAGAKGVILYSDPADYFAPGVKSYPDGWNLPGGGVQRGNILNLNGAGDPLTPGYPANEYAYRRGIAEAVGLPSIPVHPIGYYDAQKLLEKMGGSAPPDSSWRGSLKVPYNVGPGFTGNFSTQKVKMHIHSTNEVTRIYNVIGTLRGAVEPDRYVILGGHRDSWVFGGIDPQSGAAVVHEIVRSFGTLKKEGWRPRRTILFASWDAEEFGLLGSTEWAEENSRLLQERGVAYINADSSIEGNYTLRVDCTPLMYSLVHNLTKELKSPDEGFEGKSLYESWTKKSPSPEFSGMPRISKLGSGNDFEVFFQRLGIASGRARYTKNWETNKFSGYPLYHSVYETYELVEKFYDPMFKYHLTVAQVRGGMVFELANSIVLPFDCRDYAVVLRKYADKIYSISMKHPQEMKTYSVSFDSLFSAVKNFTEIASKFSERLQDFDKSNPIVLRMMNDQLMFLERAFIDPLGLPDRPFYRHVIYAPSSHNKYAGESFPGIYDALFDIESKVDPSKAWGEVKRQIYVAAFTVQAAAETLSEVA
Bridge positions count the residues as written; N and C are the ends. Square brackets hold non-standard residues; d marks the D form. Peptide text beside a SMILES is read from it. * marks the point of attachment. X7 = O=C(O)CN1CCN(CC(=O)O)CCN(CC(=O)NC2CCN(CC(=O)*)CC2)CCN(CC(=O)O)CC1; DOTA = O=C(O)CN1CCN(CC(=O)O)CCN(CC(=O)*)CCN(CC(=O)O)CC1; Phe(4-Cl) = N[C@@H](Cc1ccc(Cl)cc1)C(=O)O; Tle = CC(C)(C)[C@H](N)C(=O)O; Isovaleryl = CC(C)CC(=O)*; Nle = CCCC[C@H](N)C(=O)O; Aib = CC(C)(N)C(=O)O; GABA = NCCCC(=O)O
For each entry below, report its IC50 value.

Exercise: Give recorded IC50. CC(C)CC(=O)NC(C)(C)C(=O)N[C@@H](Cc1ccc(Cl)cc1)C(=O)N[C@H]1CSSC[C@@H](C(=O)N[C@H](C(=O)N[C@H](C(N)=O)[C@@H](C)O)C(C)(C)C)NC(=O)[C@H](CC(N)=O)NC(=O)[C@H](CCCCNC(=O)CN2CCC(NC(=O)CN3CCN(CC(=O)O)CCN(CC(=O)O)CCN(CC(=O)O)CC3)CC2)NC(=O)[C@H](CCCNC(=N)N)NC(=O)[C@H](CCCCN)NC1=O [PSM-0353] (Isovaleryl-[Aib][Phe(4-Cl)]CKRK(X7)NC[Tle]T-NH2; disulfide 3-8)
Solution: < 200 nM

Exercise: Please give the documented IC50 of CC(=O)N[C@H](C(=O)NC(C)(C)C(=O)N[C@@H](Cc1ccccc1)C(=O)N[C@H]1CSSC[C@@H](C(=O)N[C@H](C(=O)N[C@H](C(N)=O)[C@@H](C)O)C(C)(C)C)NC(=O)[C@H](CC(N)=O)NC(=O)[C@H](CCCCNC(=O)CN2CCN(CC(=O)O)CCN(CC(=O)O)CCN(CC(=O)O)CC2)NC(=O)[C@H](CCCNC(=N)N)NC(=O)[C@H](CCCCN)NC1=O)[C@@H](C)O [PSM-0326] (Ac-T[Aib]FCKRK(DOTA)NC[Tle]T-NH2; disulfide 4-9)
Solution: < 200 nM

Exercise: Answer with the recorded IC50 for the compound listed here: CCCC[C@H](NC(=O)[C@@H]1CSSC[C@H](NC(=O)[C@H](Cc2ccccc2)NC(=O)[C@H](C)NC(=O)[C@@H](NC(C)=O)[C@@H](C)O)C(=O)N[C@@H](CCCCN)C(=O)N[C@@H](CCCNC(=N)N)C(=O)N[C@@H](C)C(=O)N[C@@H](CC(N)=O)C(=O)N1)C(=O)N[C@H](C(=O)NCCCC(=O)O)[C@@H](C)O [PSM-0313] (Ac-TAFCKRANC[Nle]T[GABA]-OH; disulfide 4-9)
Solution: 200 to 1260 nM
